# MEASUREMENT_TARGET: Integrin alpha-V/beta-1 (Homo sapiens, UniProt P05556+P06756)
# Sequence (P05556 21-798 limits assumed): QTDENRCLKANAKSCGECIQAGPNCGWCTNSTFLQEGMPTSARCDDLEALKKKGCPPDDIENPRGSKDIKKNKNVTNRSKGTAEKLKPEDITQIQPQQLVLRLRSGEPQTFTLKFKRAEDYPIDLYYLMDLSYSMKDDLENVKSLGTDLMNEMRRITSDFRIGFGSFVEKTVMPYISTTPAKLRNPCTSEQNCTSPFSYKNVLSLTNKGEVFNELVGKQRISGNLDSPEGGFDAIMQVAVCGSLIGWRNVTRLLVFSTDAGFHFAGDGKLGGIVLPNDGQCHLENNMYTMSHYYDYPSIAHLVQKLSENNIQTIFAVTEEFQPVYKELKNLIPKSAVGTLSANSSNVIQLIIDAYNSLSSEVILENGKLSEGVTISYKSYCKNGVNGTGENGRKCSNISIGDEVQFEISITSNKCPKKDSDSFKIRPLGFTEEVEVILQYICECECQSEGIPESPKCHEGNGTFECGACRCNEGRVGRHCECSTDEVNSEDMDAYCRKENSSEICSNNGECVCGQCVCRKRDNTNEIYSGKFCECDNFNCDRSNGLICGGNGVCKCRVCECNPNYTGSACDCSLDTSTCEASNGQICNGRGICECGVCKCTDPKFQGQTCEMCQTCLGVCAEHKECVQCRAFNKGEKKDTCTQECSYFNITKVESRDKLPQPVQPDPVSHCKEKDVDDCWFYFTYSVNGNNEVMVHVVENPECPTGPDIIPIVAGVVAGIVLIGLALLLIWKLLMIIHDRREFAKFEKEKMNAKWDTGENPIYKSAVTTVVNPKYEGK
# Sequence (P06756 31-889 limits assumed): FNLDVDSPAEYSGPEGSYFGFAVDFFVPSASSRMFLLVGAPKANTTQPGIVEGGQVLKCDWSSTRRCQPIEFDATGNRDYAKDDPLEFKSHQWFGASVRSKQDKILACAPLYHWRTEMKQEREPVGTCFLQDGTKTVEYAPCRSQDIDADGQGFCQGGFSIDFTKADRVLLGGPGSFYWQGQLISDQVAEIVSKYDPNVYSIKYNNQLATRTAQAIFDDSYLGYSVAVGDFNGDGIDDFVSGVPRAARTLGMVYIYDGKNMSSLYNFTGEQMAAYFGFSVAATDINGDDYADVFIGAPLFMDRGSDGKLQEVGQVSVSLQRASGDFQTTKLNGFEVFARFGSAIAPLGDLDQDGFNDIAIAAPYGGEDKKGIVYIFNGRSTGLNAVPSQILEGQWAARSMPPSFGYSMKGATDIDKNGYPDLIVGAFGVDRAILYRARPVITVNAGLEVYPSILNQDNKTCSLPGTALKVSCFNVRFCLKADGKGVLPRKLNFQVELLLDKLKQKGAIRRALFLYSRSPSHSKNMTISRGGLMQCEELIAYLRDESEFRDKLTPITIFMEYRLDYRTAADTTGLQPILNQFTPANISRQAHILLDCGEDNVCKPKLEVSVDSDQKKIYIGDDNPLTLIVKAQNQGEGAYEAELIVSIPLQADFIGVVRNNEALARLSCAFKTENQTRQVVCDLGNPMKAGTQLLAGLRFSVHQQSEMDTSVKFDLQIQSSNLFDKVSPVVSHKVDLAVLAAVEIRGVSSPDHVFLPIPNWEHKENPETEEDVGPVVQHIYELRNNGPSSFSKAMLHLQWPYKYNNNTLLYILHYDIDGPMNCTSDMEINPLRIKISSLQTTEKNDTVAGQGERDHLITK
# Sequence (P06756 891-1048 limits assumed): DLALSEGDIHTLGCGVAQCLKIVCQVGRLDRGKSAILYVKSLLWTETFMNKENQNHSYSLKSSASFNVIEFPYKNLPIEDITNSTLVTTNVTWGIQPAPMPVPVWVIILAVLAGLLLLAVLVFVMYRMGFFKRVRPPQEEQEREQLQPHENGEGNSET
# ASSAY_NOTES: Binding affinity towards alpha V-beta1 receptor expressed in HEK293 cells
pIC50: −log10 of the molar value.
RESULT_TYPE: pIC50

# COMPOUND, RESULT
records = [
    ("NC(N)=Nc1cccc(C(=O)Nc2ccc(CCC(=O)O)cc2)c1", 6.12),
    ("N=C(N)Nc1cccc(C(=O)Nc2ccc(OCC(=O)O)cc2)c1", 6.45),
    ("COc1cc(NC(=O)c2cccc(NC3=NCCCN3)c2)ccc1OCC(=O)O", 7.09),
    ("COc1cc(NC(=O)c2cccc(N=C(N)N)c2)ccc1OCC(=O)O", 6.65),
    ("COc1cc(NC(=O)c2cccc(NC3=NCCCN3)c2)ccc1CCC(=O)O", 6.79),
    ("CC(C)(C)NC(=O)NC(Cc1ccc(NC(=O)c2cccc(N=C(N)N)c2)cc1)C(=O)O (configuration not stated)", 8.32),
    ("CC(=O)NC(Cc1ccc(NC(=O)c2cccc(N=C(N)N)c2)cc1)C(=O)O (configuration not stated)", 7.80),
]
